test: NCI Yeast Anticancer Drug Screen. Data for the sgs1 mgt1 strain (AID 161);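 note: 0% = growth of cultures given vehicle only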; settings: S. cerevisiae sgs1 mgt1 strain, at 50.0 µM, stronger effect = higher value
Compounds without any hit were thinned out: in the full panel of roughly 79,000, 15% have a hit.
property_name: growth inhibition (%)
Numbers only, in %.

A selection of reference data follows.
O=C1C(N2CCOCC2)=C(Cl)C(=O)c2ncccc21	89.8
CCCCCCCCCCCCCCCCNC(C)c1ccccc1 (stereo unspecified)	99
CC[C@@H](C(=O)[C@@H](C)[C@@H](O)[C@H](C)CCc1ccc(C)c(O)c1C(=O)O)[C@H]1O[C@](CC)([C@H]2CC[C@](O)(CC)[C@H](C)O2)C[C@@H]1C	91
CCCC/C=C\CCCCCCCCCC1=C(O)C(=O)C=C(OC)C1=O	65.3
COc1ccc(Cc2c3ccccc3cc[n+]2C)cc1Oc1ccc(Cc2c3ccccc3cc[n+]2C)cc1	76.5
OCC(CCc1c[nH]c2ccccc12)c1c[nH]c2ccccc12 (stereo unspecified)	62
C=CS(=O)(=O)c1ccc2ccccc2c1	99.2
C=C(CN1CCOCC1)C(=O)c1ccccc1	85.5

// batch mode: one growth inhibition value per listed entry
1. Cn1c(=O)c2c(ncn2-c2ccncc2)n(C)c1=O
2. Nc1ccc(S(=O)(=O)Nc2ccccc2)cc1
3. CC(C)c1cccc2sc(NC(=O)C(=O)C(C#N)c3cccc4ccccc34)nc12 (stereo unspecified)

Output:
1. 15.9
2. 26.1
3. 0.25

----------
Experiment: NCI Yeast Anticancer Drug Screen. Data for the mec2-1 strain (AID 157)
Settings: S. cerevisiae mec2-1 strain, at 5.0 µM (retest, dose inferred, filed as 0.5)
Description: Growth inhibition of yeast strains with defined genetic alterations is measured as a screen for potential anti-cancer activity. Selected strains with alterations in DNA damage repair or cell cycle control were exposed to compounds and growth inhibition was measured relative to vehicle treated controls. The strain used in this assay is mec2-1
Compounds without any hit were thinned out: in the full panel of roughly 79,000, 15% have a hit. Calls of active or inactive are those of the source. Rule as the data show it: active = growth inhibition above about 70%; inactive = the rest.
Bench note: report the call from y for active, n for inactive

Sample answers from the record:
COc1ccccc1/C=C1\Sc2scc(-c3ccc(O)c(O)c3)[n+]2C1=O	n
CCOC(=O)/C=C(\NC1CC(OC2C[C@](O)(C(C)=O)Cc3c(O)c4c(c(O)c32)C(=O)c2c(OC)cccc2C4=O)OC(C)C1O)C(=O)OCC (stereo not given in full)	n
Cc1ccc(S(=O)(=O)Nn2c(S)c(C#N)c(-c3ccc([N+](=O)[O-])cc3)c(C#N)c2=O)cc1	n

Input: Hello, I am checking results. What call was entered for Cc1ccc(N2CCN(c3c(N)cncc3Br)CC2)cc1 ?
Output: n

Input: Moving on to CCN(CC)c1c(C(=O)/C=C/c2ccc(Cl)cc2)c(-c2ccccc2)nn(C)c1=O
Output: n

Input: Moving on to C=C(C#N)C(=O)OCC(CC)CC.C=C(C#N)C(=O)OCC(CC)CC.CS(C)=O.CS(C)=O.Nc1c(N=Nc2ccc(-c3ccc(N=Nc4cc(S(=O)(=O)[O-])c5ccccc5c4N)cc3)cc2)cc(S(=O)(=O)[O-])c2ccccc12.[Pt+2]
Output: n

Input: Moving on to CSC1NNC2(C(=O)N1)c1ccccc1-c1ccccc12 (stereo not given)
Output: n

Input: Moving on to COC(=O)c1cccc2cccc(C(=O)Nc3ccc(C)cc3C)c12
Output: y

Cited source for all entries: PubChem BioAssay (NCI)
